Data credit: the kinase profiling compilation of Christmann-Franck et al. (2016)

system.tested: SRMS (human) (UniProt Q9H3Y6)
Sequence (Q9H3Y6 whole entry, looked up): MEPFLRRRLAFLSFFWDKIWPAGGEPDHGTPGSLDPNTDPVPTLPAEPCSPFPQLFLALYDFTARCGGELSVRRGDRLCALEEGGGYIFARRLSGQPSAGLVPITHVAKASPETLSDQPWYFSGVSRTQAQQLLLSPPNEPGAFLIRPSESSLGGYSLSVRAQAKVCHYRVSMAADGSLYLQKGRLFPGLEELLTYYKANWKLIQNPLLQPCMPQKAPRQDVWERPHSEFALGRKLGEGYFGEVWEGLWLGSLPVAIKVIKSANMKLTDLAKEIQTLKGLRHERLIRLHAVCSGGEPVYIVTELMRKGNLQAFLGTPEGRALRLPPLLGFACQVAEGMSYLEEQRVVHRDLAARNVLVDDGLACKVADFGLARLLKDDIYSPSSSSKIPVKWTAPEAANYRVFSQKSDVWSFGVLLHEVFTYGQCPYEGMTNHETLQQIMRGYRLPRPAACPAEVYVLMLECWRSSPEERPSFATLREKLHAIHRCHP
method: KINOMEscan competition binding
reported.conditions: compound 1.0 µM

{"test.smiles": "CN(C)C/C=C/C(=O)Nc1cccc(C(=O)Nc2ccc(Nc3nccc(-c4c(-c5ccccc5)nn5ccccc45)n3)cc2)c1", "kinase still bound, per cent of control, %": 87}
{"test.smiles": "CN(C)C/C=C/C(=O)Nc1cccc(C(=O)Nc2ccc(Nc3nccc(-c4cccnc4)n3)cc2)c1", "kinase still bound, per cent of control, %": 100}
{"test.smiles": "Cc1cc(NC(=O)c2cccc(NC(=O)/C=C/CN(C)C)c2)ccc1Nc1nccc(-c2cccnc2)n1", "kinase still bound, per cent of control, %": 94}
{"test.smiles": "CN(C)C/C=C/C(=O)Nc1cccc(C(=O)Nc2ccc(Nc3nccc(/C(C#N)=C4\\Nc5ccccc5S4)n3)cc2)c1", "kinase still bound, per cent of control, %": 100}

----------
kinase still bound, per cent of control overview
system.tested: RIOK3 (human) (UniProt O14730)
Sequence (O14730 whole entry, looked up): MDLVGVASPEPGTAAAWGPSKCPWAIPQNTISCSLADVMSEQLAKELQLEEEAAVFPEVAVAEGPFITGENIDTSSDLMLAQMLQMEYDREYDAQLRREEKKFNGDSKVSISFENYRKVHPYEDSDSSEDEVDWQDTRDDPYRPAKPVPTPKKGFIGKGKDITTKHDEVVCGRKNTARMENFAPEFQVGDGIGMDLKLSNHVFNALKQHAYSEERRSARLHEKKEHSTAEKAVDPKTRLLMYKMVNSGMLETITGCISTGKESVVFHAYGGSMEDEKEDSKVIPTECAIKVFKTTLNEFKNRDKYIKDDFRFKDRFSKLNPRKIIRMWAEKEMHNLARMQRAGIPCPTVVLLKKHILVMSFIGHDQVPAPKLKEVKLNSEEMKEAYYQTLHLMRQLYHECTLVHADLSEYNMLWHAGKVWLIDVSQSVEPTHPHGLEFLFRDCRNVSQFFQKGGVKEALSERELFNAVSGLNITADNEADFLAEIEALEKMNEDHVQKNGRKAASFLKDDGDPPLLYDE
method: KINOMEscan competition binding
reported.conditions: compound 1.0 µM
measured.attribute: kinase still bound, per cent of control (%)

{"test.smiles": "Cc1cc(NC(=O)c2cccc(NC(=O)/C=C/CN(C)C)c2)ccc1Nc1nccc(-c2cccnc2)n1", "system.tested": "RIOK3 (human) (UniProt O14730)", "number": 72}
{"test.smiles": "CN(C)C/C=C/C(=O)Nc1cccc(C(=O)Nc2ccc(Nc3nccc(-c4c(-c5ccccc5)nn5ccccc45)n3)cc2)c1", "system.tested": "RIOK3 (human) (UniProt O14730)", "number": 97}
{"test.smiles": "CN(C)C/C=C/C(=O)Nc1cccc(C(=O)Nc2ccc(Nc3nccc(/C(C#N)=C4\\Nc5ccccc5S4)n3)cc2)c1", "system.tested": "RIOK3 (human) (UniProt O14730)", "number": 100}
{"test.smiles": "CN(C)C/C=C/C(=O)Nc1cccc(C(=O)Nc2ccc(Nc3nccc(-c4cccnc4)n3)cc2)c1", "system.tested": "RIOK3 (human) (UniProt O14730)", "number": 8.3}

----------
system.tested: TYK2 JH1 catalytic (human) (UniProt P29597)
Sequence (P29597 whole entry, looked up): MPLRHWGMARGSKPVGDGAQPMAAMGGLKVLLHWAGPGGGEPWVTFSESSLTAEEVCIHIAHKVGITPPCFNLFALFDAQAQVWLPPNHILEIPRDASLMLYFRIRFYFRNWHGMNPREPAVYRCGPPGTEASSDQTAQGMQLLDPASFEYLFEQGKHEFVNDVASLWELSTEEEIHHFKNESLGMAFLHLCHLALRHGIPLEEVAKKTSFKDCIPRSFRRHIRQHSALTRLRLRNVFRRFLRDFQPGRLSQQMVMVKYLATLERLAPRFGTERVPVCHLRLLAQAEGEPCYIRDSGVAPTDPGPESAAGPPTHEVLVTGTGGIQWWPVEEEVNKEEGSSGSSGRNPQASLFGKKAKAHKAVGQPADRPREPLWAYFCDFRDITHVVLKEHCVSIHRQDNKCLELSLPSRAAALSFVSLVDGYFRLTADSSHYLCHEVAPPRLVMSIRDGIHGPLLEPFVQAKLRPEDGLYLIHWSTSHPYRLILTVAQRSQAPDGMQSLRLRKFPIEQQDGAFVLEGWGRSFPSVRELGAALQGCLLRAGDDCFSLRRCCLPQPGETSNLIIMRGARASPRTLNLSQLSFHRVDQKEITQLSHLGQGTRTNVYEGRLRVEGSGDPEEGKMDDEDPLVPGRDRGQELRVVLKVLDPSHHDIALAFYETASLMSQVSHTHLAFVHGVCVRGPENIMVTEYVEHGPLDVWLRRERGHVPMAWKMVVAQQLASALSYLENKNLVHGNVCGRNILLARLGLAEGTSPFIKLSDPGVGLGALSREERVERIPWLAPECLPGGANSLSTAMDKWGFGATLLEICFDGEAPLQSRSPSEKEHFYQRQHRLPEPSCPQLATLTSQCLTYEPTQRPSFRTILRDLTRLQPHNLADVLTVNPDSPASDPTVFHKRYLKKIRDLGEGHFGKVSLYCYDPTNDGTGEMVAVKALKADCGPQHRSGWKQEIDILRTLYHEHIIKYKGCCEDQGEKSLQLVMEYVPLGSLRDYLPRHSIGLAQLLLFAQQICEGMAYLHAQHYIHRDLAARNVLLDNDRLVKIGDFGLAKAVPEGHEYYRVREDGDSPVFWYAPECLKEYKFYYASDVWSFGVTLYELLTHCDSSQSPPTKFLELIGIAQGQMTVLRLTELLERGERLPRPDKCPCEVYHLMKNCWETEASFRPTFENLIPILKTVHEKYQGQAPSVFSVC
method: KINOMEscan competition binding
reported.conditions: compound 1.0 µM
measured.attribute: kinase still bound, per cent of control (%)

{"test.smiles": "Cc1cc(NC(=O)c2cccc(NC(=O)/C=C/CN(C)C)c2)ccc1Nc1nccc(-c2cccnc2)n1", "measured.attribute": "kinase still bound, per cent of control", "unit.info": "%", "number": 96}
{"test.smiles": "CN(C)C/C=C/C(=O)Nc1cccc(C(=O)Nc2ccc(Nc3nccc(/C(C#N)=C4\\Nc5ccccc5S4)n3)cc2)c1", "measured.attribute": "kinase still bound, per cent of control", "unit.info": "%", "number": 72}
{"test.smiles": "CN(C)C/C=C/C(=O)Nc1cccc(C(=O)Nc2ccc(Nc3nccc(-c4c(-c5ccccc5)nn5ccccc45)n3)cc2)c1", "measured.attribute": "kinase still bound, per cent of control", "unit.info": "%", "number": 76}
{"test.smiles": "CN(C)C/C=C/C(=O)Nc1cccc(C(=O)Nc2ccc(Nc3nccc(-c4cccnc4)n3)cc2)c1", "measured.attribute": "kinase still bound, per cent of control", "unit.info": "%", "number": 16}

----------
system.tested: CAMK2A (human)
method: KINOMEscan competition binding
reported.conditions: compound 1.0 µM

{"test.smiles": "CN(C)C/C=C/C(=O)Nc1cccc(C(=O)Nc2ccc(Nc3nccc(-c4cccnc4)n3)cc2)c1", "unit.info": "%", "kinase still bound, per cent of control": 100}
{"test.smiles": "CN(C)C/C=C/C(=O)Nc1cccc(C(=O)Nc2ccc(Nc3nccc(-c4c(-c5ccccc5)nn5ccccc45)n3)cc2)c1", "unit.info": "%", "kinase still bound, per cent of control": 100}
{"test.smiles": "Cc1cc(NC(=O)c2cccc(NC(=O)/C=C/CN(C)C)c2)ccc1Nc1nccc(-c2cccnc2)n1", "unit.info": "%", "kinase still bound, per cent of control": 100}
{"test.smiles": "CN(C)C/C=C/C(=O)Nc1cccc(C(=O)Nc2ccc(Nc3nccc(/C(C#N)=C4\\Nc5ccccc5S4)n3)cc2)c1", "unit.info": "%", "kinase still bound, per cent of control": 100}

----------
system.tested: YES1 (human)
method: KINOMEscan competition binding
reported.conditions: compound 1.0 µM
measured.attribute: kinase still bound, per cent of control (%)

{"test.smiles": "CN(C)C/C=C/C(=O)Nc1cccc(C(=O)Nc2ccc(Nc3nccc(-c4cccnc4)n3)cc2)c1", "unit.info": "%", "number": 98}
{"test.smiles": "CN(C)C/C=C/C(=O)Nc1cccc(C(=O)Nc2ccc(Nc3nccc(-c4c(-c5ccccc5)nn5ccccc45)n3)cc2)c1", "unit.info": "%", "number": 12}
{"test.smiles": "Cc1cc(NC(=O)c2cccc(NC(=O)/C=C/CN(C)C)c2)ccc1Nc1nccc(-c2cccnc2)n1", "unit.info": "%", "number": 86}
{"test.smiles": "CN(C)C/C=C/C(=O)Nc1cccc(C(=O)Nc2ccc(Nc3nccc(/C(C#N)=C4\\Nc5ccccc5S4)n3)cc2)c1", "unit.info": "%", "number": 100}

----------
kinase still bound, per cent of control overview
system.tested: PAK6 (human)
method: KINOMEscan competition binding
reported.conditions: compound 1.0 µM
measured.attribute: kinase still bound, per cent of control (%)

{"test.smiles": "CN(C)C/C=C/C(=O)Nc1cccc(C(=O)Nc2ccc(Nc3nccc(-c4c(-c5ccccc5)nn5ccccc45)n3)cc2)c1", "system.tested": "PAK6 (human)", "number": 100}
{"test.smiles": "CN(C)C/C=C/C(=O)Nc1cccc(C(=O)Nc2ccc(Nc3nccc(/C(C#N)=C4\\Nc5ccccc5S4)n3)cc2)c1", "system.tested": "PAK6 (human)", "number": 100}
{"test.smiles": "CN(C)C/C=C/C(=O)Nc1cccc(C(=O)Nc2ccc(Nc3nccc(-c4cccnc4)n3)cc2)c1", "system.tested": "PAK6 (human)", "number": 87}
{"test.smiles": "Cc1cc(NC(=O)c2cccc(NC(=O)/C=C/CN(C)C)c2)ccc1Nc1nccc(-c2cccnc2)n1", "system.tested": "PAK6 (human)", "number": 100}

----------
system.tested: UniProt:Q14004
Sequence (Q14004 whole entry, looked up): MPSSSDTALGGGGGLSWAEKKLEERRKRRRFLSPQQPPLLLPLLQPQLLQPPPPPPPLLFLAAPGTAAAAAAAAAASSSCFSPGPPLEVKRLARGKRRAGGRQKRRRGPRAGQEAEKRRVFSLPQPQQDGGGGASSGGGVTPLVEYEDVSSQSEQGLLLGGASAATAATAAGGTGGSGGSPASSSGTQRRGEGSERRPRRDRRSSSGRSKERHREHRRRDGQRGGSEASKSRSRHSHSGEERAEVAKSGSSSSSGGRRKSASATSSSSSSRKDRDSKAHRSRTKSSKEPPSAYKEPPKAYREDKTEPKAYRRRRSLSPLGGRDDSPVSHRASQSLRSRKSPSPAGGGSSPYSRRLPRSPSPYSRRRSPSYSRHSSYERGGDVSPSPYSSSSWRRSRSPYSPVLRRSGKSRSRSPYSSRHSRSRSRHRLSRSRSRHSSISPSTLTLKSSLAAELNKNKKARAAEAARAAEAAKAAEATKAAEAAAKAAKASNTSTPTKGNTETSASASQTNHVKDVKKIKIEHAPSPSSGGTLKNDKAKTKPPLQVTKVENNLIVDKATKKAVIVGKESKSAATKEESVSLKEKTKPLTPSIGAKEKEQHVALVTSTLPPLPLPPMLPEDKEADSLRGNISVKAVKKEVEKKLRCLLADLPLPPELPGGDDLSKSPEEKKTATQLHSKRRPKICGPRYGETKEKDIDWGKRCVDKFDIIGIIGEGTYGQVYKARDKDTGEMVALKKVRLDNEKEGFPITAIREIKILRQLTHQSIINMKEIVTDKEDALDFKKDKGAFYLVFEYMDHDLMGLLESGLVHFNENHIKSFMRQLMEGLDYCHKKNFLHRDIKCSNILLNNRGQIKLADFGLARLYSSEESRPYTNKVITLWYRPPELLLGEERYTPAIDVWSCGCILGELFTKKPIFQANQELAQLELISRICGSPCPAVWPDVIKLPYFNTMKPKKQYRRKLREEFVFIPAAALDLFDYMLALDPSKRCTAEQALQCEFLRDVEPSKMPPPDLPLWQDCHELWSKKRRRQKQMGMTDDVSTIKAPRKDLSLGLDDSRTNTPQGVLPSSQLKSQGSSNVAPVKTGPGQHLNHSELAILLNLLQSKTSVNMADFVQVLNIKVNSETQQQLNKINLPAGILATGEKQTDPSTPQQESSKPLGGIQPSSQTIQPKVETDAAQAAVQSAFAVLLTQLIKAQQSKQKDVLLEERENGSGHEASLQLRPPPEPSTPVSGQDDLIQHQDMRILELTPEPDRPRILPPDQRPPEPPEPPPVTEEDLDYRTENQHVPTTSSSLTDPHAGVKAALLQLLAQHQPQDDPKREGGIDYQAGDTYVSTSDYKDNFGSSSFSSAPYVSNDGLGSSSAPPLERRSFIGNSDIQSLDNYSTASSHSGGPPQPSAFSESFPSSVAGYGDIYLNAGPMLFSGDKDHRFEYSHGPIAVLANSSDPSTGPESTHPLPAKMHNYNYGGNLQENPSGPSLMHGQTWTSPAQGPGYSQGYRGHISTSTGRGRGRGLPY
method: KINOMEscan competition binding
reported.conditions: compound 1.0 µM

{"test.smiles": "CN(C)C/C=C/C(=O)Nc1cccc(C(=O)Nc2ccc(Nc3nccc(/C(C#N)=C4\\Nc5ccccc5S4)n3)cc2)c1", "system.tested": "UniProt:Q14004", "unit.info": "%", "kinase still bound, per cent of control": 100}
{"test.smiles": "CN(C)C/C=C/C(=O)Nc1cccc(C(=O)Nc2ccc(Nc3nccc(-c4c(-c5ccccc5)nn5ccccc45)n3)cc2)c1", "system.tested": "UniProt:Q14004", "unit.info": "%", "kinase still bound, per cent of control": 100}
{"test.smiles": "CN(C)C/C=C/C(=O)Nc1cccc(C(=O)Nc2ccc(Nc3nccc(-c4cccnc4)n3)cc2)c1", "system.tested": "UniProt:Q14004", "unit.info": "%", "kinase still bound, per cent of control": 43}
{"test.smiles": "Cc1cc(NC(=O)c2cccc(NC(=O)/C=C/CN(C)C)c2)ccc1Nc1nccc(-c2cccnc2)n1", "system.tested": "UniProt:Q14004", "unit.info": "%", "kinase still bound, per cent of control": 100}

----------
system.tested: MAP4K3 (human) (UniProt Q8IVH8)
Sequence (Q8IVH8 whole entry, looked up): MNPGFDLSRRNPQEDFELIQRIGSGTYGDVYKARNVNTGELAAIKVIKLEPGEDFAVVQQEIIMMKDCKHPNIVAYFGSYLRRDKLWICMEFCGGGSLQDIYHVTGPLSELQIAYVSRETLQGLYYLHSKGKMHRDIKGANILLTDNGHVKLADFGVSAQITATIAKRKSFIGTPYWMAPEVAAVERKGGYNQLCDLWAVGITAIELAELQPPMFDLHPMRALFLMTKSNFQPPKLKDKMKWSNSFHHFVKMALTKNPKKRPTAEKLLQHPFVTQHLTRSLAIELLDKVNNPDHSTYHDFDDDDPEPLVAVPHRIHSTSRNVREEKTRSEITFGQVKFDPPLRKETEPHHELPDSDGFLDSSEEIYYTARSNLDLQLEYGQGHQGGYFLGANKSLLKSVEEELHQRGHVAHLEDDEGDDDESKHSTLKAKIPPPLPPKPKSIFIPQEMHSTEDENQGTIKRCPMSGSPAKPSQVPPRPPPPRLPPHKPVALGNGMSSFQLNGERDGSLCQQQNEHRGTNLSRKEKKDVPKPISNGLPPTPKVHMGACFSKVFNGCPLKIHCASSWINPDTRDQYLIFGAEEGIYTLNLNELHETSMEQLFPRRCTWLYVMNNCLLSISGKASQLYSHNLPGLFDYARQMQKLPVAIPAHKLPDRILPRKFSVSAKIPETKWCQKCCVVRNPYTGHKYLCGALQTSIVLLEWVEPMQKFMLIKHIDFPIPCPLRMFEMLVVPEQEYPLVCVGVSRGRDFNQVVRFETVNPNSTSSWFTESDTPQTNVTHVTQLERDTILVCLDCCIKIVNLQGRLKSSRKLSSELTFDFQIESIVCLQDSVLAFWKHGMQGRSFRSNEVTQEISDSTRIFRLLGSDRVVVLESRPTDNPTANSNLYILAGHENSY
method: KINOMEscan competition binding
reported.conditions: compound 1.0 µM
kinase still bound, per cent of control overview

{"test.smiles": "CN(C)C/C=C/C(=O)Nc1cccc(C(=O)Nc2ccc(Nc3nccc(-c4cccnc4)n3)cc2)c1", "kinase still bound, per cent of control [%]": 38}
{"test.smiles": "CN(C)C/C=C/C(=O)Nc1cccc(C(=O)Nc2ccc(Nc3nccc(-c4c(-c5ccccc5)nn5ccccc45)n3)cc2)c1", "kinase still bound, per cent of control [%]": 59}
{"test.smiles": "Cc1cc(NC(=O)c2cccc(NC(=O)/C=C/CN(C)C)c2)ccc1Nc1nccc(-c2cccnc2)n1", "kinase still bound, per cent of control [%]": 100}
{"test.smiles": "CN(C)C/C=C/C(=O)Nc1cccc(C(=O)Nc2ccc(Nc3nccc(/C(C#N)=C4\\Nc5ccccc5S4)n3)cc2)c1", "kinase still bound, per cent of control [%]": 91}

----------
kinase still bound, per cent of control overview
system.tested: UniProt P21860
method: KINOMEscan competition binding
reported.conditions: compound 1.0 µM
measured.attribute: kinase still bound, per cent of control (%)

{"test.smiles": "CN(C)C/C=C/C(=O)Nc1cccc(C(=O)Nc2ccc(Nc3nccc(-c4cccnc4)n3)cc2)c1", "number": 100}
{"test.smiles": "CN(C)C/C=C/C(=O)Nc1cccc(C(=O)Nc2ccc(Nc3nccc(/C(C#N)=C4\\Nc5ccccc5S4)n3)cc2)c1", "number": 74}
{"test.smiles": "CN(C)C/C=C/C(=O)Nc1cccc(C(=O)Nc2ccc(Nc3nccc(-c4c(-c5ccccc5)nn5ccccc45)n3)cc2)c1", "number": 43}
{"test.smiles": "Cc1cc(NC(=O)c2cccc(NC(=O)/C=C/CN(C)C)c2)ccc1Nc1nccc(-c2cccnc2)n1", "number": 93}
